Reference source for all entries: patent US20250282868A1

- system-under-test: T1, human TREM2 (human, UniProt Q9NZC2 19-230)
- T1 construct: on THP-1 WT cells and M2a-like macrophages (endogenous) and on CHO or HEK293T cells overexpressing human TREM2 with DAP12; also called hTREM2
- T1 sequence: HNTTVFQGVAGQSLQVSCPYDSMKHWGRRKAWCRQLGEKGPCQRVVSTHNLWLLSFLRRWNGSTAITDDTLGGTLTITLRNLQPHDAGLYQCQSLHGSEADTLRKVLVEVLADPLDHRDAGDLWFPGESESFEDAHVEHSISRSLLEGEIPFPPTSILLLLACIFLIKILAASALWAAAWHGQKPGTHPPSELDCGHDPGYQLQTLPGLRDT
- protocol-summary: flow cytometry, THP-1 WT cells, 10 ug/ml
assay-metric: Fold over isotype control THP1 WT (fold)
Report the value in fold with no unit label.

Known results for binders:
QUERY: Can you share its Fold over isotype control THP1 WT? I mean this binder: EOS006164 (antibody, V domains shown) VH: EVQLVESGGGLVQPGRSLRLSCTASGFTFDDYTMSWFRQAPGKGLEWVGFIGSKAYSATTEYTASVKGRFTISRDGSKSIAYLQMNSLKTEDTAVYYCARGKRYSYTYWTPAFDVWGQGTMVTVSS VL: DIQMTQSPSSLSASVGDRVTITCQASQDITNYLNWYQQKPGKAPKLLIYDASNLETGVPSRFSGSGSGTDFTFTISSLQPEDIATYYCQEYDSYITFGGGTKVEIK
RESULT: 3.7

QUERY: // Fold over isotype control THP1 WT lookup, key: EOS006171 (antibody, V domains shown) VH: QVQLVESGGGLVKPGGSLRLSCAASGFTFSDYYMSWIRQAPGKGLEWVSYISSSGSTIYYADSVKGRFTISRDNAKNSLYLQMNSLRAEDTAVYYCARLGGYYSLGPMDVWGQGTTVTVSS VL: EIVLTQSPATLSLSPGERATLSCRASQSVSSYLAWYQQKPGQAPRLLIYDASNRATGIPARFSGSGSGTDFTLTISSLEPEDFAVYYCQQDSAFPFTFGGGTKVEIK
RESULT: 6.6

Next binder, Fold over isotype control THP1 WT to be filled in.
QUERY: Which Fold over isotype control THP1 WT value belongs to EOS006165 (antibody, V domains shown) VH: QVQLVQSGAEVKKPGSSVKVSCKASGGTFSSYAISWVRQAPGQGLEWMGGIIPISGTANYAQKFQGRVTITADESTSTAYMELSSLRSEDTAVYYCARTQEYTAFDIWGQGTMVTVSS VL: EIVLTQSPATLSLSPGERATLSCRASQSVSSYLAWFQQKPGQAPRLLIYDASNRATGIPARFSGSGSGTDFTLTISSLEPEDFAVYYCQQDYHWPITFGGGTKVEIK ?
RESULT: 1.7
